assay_target: Sodium-dependent noradrenaline transporter (Homo sapiens)
Sequence (P23975 whole entry): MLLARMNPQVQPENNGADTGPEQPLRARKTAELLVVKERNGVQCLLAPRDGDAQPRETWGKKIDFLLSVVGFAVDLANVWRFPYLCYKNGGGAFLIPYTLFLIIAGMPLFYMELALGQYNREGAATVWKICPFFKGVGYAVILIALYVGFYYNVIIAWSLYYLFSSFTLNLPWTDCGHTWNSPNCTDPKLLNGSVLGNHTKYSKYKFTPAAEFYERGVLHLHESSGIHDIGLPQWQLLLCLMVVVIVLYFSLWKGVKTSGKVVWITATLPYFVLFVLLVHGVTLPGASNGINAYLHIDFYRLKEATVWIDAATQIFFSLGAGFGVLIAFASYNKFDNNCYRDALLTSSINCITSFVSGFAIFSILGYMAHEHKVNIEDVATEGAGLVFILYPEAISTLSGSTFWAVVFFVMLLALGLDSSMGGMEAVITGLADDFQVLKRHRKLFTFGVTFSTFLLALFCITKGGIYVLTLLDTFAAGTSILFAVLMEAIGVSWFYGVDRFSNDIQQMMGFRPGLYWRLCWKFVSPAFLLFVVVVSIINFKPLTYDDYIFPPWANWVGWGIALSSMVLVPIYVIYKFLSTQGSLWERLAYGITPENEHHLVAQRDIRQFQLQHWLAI
procedure_summary: Displacement of [125I]RTI55 from human NET expressed in COS1 cell membrane
Assay type: cell membranes, COS-1
Catalogue of Ki values

compound | Ki
COC(=O)C1=C(c2ccc(C(C)(C)C)cc2)CCCCC1 | 62 µM
COC(=O)C1=C(c2cccc([N+](=O)[O-])c2)CCCC1 | 121 µM
CCOC(=O)C1=C(c2ccc3ccccc3c2)CCNC1 | 0.268 µM
COC(=O)C1=C(c2ccc(Cl)c(Cl)c2)CCCCC1 | 15 µM
COC(=O)C1=C(c2ccc(C(F)(F)F)cc2)CCCC1 | 2020 µM
COC(=O)C1=C(c2ccc(Cl)cc2)CCC1 | 420 µM
COC(=O)C1=C(c2ccc(Cl)cc2)CCCC1 | 993 µM
COC(=O)[C@@H]1CCCC[C@@H]1c1ccc(C(C)(C)C)cc1 | 675 µM
COC(=O)C1=C(c2ccc(OC)cc2)CCC1 | 550 µM
COC(=O)C1=C(c2ccc(Cl)c(Cl)c2)CCC1 | 11 µM
COC(=O)[C@@H]1CN(C)CC[C@H]1c1ccccc1 (racemic) | 36.3 µM
COC(=O)c1ccccc1-c1ccc2ccccc2c1 | 46.7 µM

###

assay_target: Sodium-dependent serotonin transporter (Homo sapiens)
Sequence (P31645 whole entry): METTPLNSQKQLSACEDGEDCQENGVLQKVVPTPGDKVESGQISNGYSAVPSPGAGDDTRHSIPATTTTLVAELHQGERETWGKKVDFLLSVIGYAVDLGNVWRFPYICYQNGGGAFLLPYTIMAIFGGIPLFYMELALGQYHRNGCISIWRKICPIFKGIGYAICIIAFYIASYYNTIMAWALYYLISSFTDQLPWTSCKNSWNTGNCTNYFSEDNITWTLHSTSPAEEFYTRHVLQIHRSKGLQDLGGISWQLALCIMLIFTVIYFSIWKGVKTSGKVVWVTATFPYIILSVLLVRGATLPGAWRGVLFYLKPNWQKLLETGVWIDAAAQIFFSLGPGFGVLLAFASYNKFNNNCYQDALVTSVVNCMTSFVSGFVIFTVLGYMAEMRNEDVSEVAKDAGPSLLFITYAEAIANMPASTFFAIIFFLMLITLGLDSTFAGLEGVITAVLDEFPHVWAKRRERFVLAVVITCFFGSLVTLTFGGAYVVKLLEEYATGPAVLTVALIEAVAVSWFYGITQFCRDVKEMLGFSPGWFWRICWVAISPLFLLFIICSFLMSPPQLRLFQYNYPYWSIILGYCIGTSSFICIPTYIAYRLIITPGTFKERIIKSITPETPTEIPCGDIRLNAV
procedure_summary: Displacement of [125I]RTI55 from human SERT expressed in COS1 cell membrane
Type: cell membranes, COS-1
pKi: −log10 of the molar value.

molecule | pKi
COC(=O)[C@@H]1CN(C)CC[C@H]1c1ccc(I)cc1 (racemic) | 5.55
COC(=O)C1=C(c2ccc(C(C)(C)C)cc2)CCCC1 | 2.65
COC(=O)[C@H]1[C@@H](c2ccc(I)cc2)C[C@H]2CC[C@@H]1N2C | 8.22
COC(=O)C1=C(c2cccc(Cl)c2)CCCC1 | 2.93
COC(=O)[C@@H]1CCCC[C@@H]1c1ccccc1 | 2.82
COC(=O)[C@@H]1CCCCC[C@@H]1c1ccc(C(C)(C)C)cc1 | 2.74

###

Catalogue of log10 of Ki values
assay_target: Sodium-dependent dopamine transporter (Homo sapiens)
Sequence (Q01959 whole entry): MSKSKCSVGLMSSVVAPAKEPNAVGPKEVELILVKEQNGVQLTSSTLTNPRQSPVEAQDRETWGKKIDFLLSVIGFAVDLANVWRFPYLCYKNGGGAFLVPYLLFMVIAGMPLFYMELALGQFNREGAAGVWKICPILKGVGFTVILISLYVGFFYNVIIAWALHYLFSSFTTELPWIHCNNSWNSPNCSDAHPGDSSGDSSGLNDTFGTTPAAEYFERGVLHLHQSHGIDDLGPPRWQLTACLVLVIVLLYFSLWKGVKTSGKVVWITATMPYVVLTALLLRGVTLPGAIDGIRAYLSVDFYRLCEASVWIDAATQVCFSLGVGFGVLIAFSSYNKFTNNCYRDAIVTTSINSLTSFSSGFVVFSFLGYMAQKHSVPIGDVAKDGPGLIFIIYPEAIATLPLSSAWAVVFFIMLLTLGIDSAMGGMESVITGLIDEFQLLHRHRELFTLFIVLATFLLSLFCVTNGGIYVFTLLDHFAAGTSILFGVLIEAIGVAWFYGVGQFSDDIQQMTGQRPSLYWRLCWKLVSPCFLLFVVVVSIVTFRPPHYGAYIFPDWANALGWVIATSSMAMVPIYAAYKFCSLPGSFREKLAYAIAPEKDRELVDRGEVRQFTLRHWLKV
procedure_summary: Displacement of [125I]RTI55 from human DAT expressed in COS1 cell membrane
Type: cell membranes, COS-1
measured_quantity: log10 of Ki (log10 of the value in µM)

compound | assay_target | log10 of Ki
CCOC(=O)C1=C(c2cccc([N+](=O)[O-])c2)CCNC1 | Sodium-dependent dopamine transporter (Homo sapiens) | 1.31
COC(=O)[C@@H]1CN(C)CC[C@H]1c1ccc(I)cc1 (racemic) | Sodium-dependent dopamine transporter (Homo sapiens) | 0.10
COC(=O)C1=C(c2ccc(Cl)c(Cl)c2)CCCC1 | Sodium-dependent dopamine transporter (Homo sapiens) | 0.32
COC(=O)C1=C(c2ccc(Cl)cc2)CCCCC1 | Sodium-dependent dopamine transporter (Homo sapiens) | 1.18
COC(=O)C1=C(c2cccc(Cl)c2)CCC1 | Sodium-dependent dopamine transporter (Homo sapiens) | 1.53
COC(=O)C1=C(c2cccc(Cl)c2)CCCC1 | Sodium-dependent dopamine transporter (Homo sapiens) | 1.34
COC(=O)C1=C(c2cccc(Cl)c2)CCCCC1 | Sodium-dependent dopamine transporter (Homo sapiens) | 1.34
COC(=O)[C@H]1[C@@H](c2ccc(I)cc2)C[C@H]2CC[C@@H]1N2C | Sodium-dependent dopamine transporter (Homo sapiens) | -2.40
COC(=O)C1=C(c2ccc(Cl)cc2)CCC1 | Sodium-dependent dopamine transporter (Homo sapiens) | 1.26
COC(=O)C1=C(c2cccc(C(F)(F)F)c2)CCCC1 | Sodium-dependent dopamine transporter (Homo sapiens) | 3.02
COC(=O)C1=C(c2ccc(C(C)(C)C)cc2)CCCC1 | Sodium-dependent dopamine transporter (Homo sapiens) | 2.78
COC(=O)C1=C(c2ccc(C(C)(C)C)cc2)CCCCC1 | Sodium-dependent dopamine transporter (Homo sapiens) | 2.95
COC(=O)[C@@H]1CN(C)CC[C@@H]1c1ccc(I)cc1 (racemic) | Sodium-dependent dopamine transporter (Homo sapiens) | -0.49
COC(=O)[C@@H]1CCCC[C@@H]1c1ccccc1 | Sodium-dependent dopamine transporter (Homo sapiens) | 2.99
COC(=O)C1=C(c2ccc(-c3ccccc3)cc2)CCCC1 | Sodium-dependent dopamine transporter (Homo sapiens) | 2.42
COC(=O)[C@@H]1CN(C)CC[C@@H]1c1ccc(Cl)c(Cl)c1 (stereo in doubt; 3a) | Sodium-dependent dopamine transporter (Homo sapiens) | -0.49
COC(=O)[C@@H]1CCCCC[C@@H]1c1ccc(C(C)(C)C)cc1 | Sodium-dependent dopamine transporter (Homo sapiens) | 3.06
COC(=O)C1=C(c2ccc(-c3ccccc3)cc2)CCCCC1 | Sodium-dependent dopamine transporter (Homo sapiens) | 0.30
COC(=O)[C@@H]1CN(C)CC[C@@H]1c1ccccc1 (racemic) | Sodium-dependent dopamine transporter (Homo sapiens) | 0.93
CCOC(=O)C1=C(c2ccc3ccccc3c2)CCNC1 | Sodium-dependent dopamine transporter (Homo sapiens) | -1.10
COC(=O)C1=C(c2ccc3ccccc3c2)CCC1 | Sodium-dependent dopamine transporter (Homo sapiens) | 0.61
COC(=O)[C@@H]1CCCC[C@@H]1c1cccc(C(F)(F)F)c1 | Sodium-dependent dopamine transporter (Homo sapiens) | 2.76
CCOC(=O)C1=C(c2ccc(Cl)c(Cl)c2)CCNC1 | Sodium-dependent dopamine transporter (Homo sapiens) | -0.04

Each recorded value in this set is attributed to ChEMBL document CHEMBL1148012.
